Biological target: D3 (h) (Homo sapiens, UniProt P35462)
Construct: host or cells: CHO cells
Sequence (P35462 whole entry): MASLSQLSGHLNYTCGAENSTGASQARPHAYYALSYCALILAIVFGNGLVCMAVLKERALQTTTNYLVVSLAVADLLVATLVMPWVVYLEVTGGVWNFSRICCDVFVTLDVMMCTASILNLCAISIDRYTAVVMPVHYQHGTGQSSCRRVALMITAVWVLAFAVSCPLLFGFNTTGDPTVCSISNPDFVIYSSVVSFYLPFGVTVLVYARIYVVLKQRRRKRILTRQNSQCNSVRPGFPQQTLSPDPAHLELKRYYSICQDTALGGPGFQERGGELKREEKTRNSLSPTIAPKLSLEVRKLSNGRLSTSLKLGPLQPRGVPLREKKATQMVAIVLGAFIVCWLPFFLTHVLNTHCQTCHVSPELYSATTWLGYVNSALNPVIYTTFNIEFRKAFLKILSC
Experiment: Competition assay to measure binding affinity at D3 receptor
Conditions: test ligand 10 μM; [3H]methylspiperone […]
experimental.readout: D3, percent of control-specific binding (%)
Record the value in %, omitting the unit from your answer.

Query block: Hello, I am looking for reported D3, percent of control-specific binding with D3 (h) (Homo sapiens, UniProt P35462) for CC(Cc1ccc2c(c1)OCO2)N1CCOCC1 (centres unmarked) [A(III)] . Could you help?
Result block: 9

Query block: Hello, I am looking for reported D3, percent of control-specific binding with D3 (h) (Homo sapiens, UniProt P35462) for COc1ccc2cccc(CCNC(C)=O)c2c1 [Agomelatine, reference compound] . Could you help?
Result block: 6

Query block: Hello, I am looking for reported D3, percent of control-specific binding with D3 (h) (Homo sapiens, UniProt P35462) for CC(NC(C)(C)C)C(=O)c1cccc(Cl)c1 (centres unmarked) [Bupropion, reference compound] . Could you help?
Result block: 3

Query block: Hello, I am looking for reported D3, percent of control-specific binding with D3 (h) (Homo sapiens, UniProt P35462) for CN(C)CCCN1c2ccccc2CCc2ccccc21 [Imipramine, reference compound] . Could you help?
Result block: 92

More entries:
Query block: Hello, I am looking for reported D3, percent of control-specific binding with D3 (h) (Homo sapiens, UniProt P35462) for N[C@@H](Cc1c[nH]c2ccccc12)C(=O)O [tryptophan, reference compound] . Could you help?
Result block: −23

Query block: Hello, I am looking for reported D3, percent of control-specific binding with D3 (h) (Homo sapiens, UniProt P35462) for N#CC(Cc1ccc2c(c1)OCO2)NC1CCC1 (centres unmarked) [A(XX)] . Could you help?
Result block: 0

Query block: Hello, I am looking for reported D3, percent of control-specific binding with D3 (h) (Homo sapiens, UniProt P35462) for CC(C)(C)OC(=O)NC1CN(CCc2ccc3c(c2)OCO3)C1 [A(XV)] . Could you help?
Result block: 53

Query block: Hello, I am looking for reported D3, percent of control-specific binding with D3 (h) (Homo sapiens, UniProt P35462) for COc1cc2c(cc1CNC(C)Cc1ccc3c(c1)OCO3)OCO2 (centres unmarked) [A(V)] . Could you help?
Result block: 23

###

Recorded Ki, one value per entry.
Biological target: human serotonin transporter (SERT) (Homo sapiens)
Construct: purchased PerkinElmer RBHSTM400UA
Sequence (P31645 whole entry): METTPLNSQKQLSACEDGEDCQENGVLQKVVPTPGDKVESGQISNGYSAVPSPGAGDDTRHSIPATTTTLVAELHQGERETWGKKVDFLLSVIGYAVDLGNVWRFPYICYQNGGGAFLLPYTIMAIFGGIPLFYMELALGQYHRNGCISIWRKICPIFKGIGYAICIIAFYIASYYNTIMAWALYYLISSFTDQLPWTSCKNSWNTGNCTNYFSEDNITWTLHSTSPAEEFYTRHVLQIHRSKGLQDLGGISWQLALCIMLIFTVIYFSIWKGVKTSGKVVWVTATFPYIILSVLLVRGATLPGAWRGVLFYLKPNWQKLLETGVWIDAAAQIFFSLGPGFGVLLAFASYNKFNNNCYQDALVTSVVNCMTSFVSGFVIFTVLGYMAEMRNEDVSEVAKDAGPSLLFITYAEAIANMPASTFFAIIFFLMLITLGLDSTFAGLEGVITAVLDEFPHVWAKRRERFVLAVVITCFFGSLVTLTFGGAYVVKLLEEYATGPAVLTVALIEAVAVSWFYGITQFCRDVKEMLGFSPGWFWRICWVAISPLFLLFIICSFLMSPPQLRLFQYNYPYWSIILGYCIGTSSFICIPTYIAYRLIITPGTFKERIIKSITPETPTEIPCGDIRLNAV
Test: biochemical
Assay type: binding

// below: answered compounds
Query block: Param item = O=C(Cc1cc2c(cc1Br)OCO2)NCCO [A(XIX)] ; retrieve measured Ki.
Result block: > 1000 µM

Query block: Param item = OCCNCCc1cc2c(cc1Br)OCO2 [A(XXX)] ; retrieve measured Ki.
Result block: 84.3 µM

Query block: Param item = COc1cc2c(cc1CCN1CCCC1)OCO2 [A(XIV)] ; retrieve measured Ki.
Result block: 23.2 µM

Query block: Param item = CC(Cc1ccc2c(c1)OCO2)N1CCOCC1 (centres unmarked) [A(III)] ; retrieve measured Ki.
Result block: 26.3 µM

Query block: Param item = CC(C)(C)OC(=O)NC1CN(CCc2ccc3c(c2)OCO3)C1 [A(XV)] ; retrieve measured Ki.
Result block: 64.3 µM

Query block: Param item = CC(Cc1ccc2c(c1)OCCO2)NC1CCC1 (centres unmarked) [A(XVII)] ; retrieve measured Ki.
Result block: 1.71 µM

More entries:
Query block: Param item = CON(C)C(C)Cc1ccc2c(c1)OCO2 (centres unmarked) [A(XVIII)] ; retrieve measured Ki.
Result block: 98 µM

Query block: Param item = CC(Cc1ccc2c(c1)OCO2)N1CC(NC(=O)OC(C)(C)C)C1 (centres unmarked) [A(IV)] ; retrieve measured Ki.
Result block: 49.8 µM

Query block: Param item = FC1(F)Oc2ccc(CCN3CCCC3)cc2O1 [A(XXVIII)] ; retrieve measured Ki.
Result block: 23.7 µM

Query block: Param item = CC(Cc1ccc2c(c1)OCO2)NN(C)C (centres unmarked) [A(VIII)] ; retrieve measured Ki.
Result block: 22.6 µM

Query block: Param item = COc1cc2c(cc1CC(=O)N1CCCC1)OCO2 [A(XXI)] ; retrieve measured Ki.
Result block: 847 µM
